# study.system: KDM4E (Homo sapiens, UniProt B2RXH2)
# Sequence (B2RXH2 1-506): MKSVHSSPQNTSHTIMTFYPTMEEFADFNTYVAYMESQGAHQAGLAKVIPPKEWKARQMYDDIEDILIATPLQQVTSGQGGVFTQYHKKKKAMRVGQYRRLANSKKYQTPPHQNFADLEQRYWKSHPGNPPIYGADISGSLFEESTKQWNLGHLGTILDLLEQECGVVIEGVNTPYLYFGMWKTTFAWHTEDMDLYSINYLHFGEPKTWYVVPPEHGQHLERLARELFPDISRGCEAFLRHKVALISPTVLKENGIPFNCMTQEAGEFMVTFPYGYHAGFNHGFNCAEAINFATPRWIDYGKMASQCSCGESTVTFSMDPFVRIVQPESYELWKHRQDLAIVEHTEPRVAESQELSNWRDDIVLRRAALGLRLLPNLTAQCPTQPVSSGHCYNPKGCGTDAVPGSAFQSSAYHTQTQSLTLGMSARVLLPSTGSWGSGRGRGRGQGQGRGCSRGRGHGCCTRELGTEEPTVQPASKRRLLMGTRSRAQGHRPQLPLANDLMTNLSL
measured.metric: pIC50
One number for each entry, as −log10 of the molar value.

Answered examples (2):
O=C(O)c1ccncc1Nc1nn(CCN2CCC(F)(F)CC2)c2ccc(F)cc12 [Example 13] ... 6.17
O=C(O)c1ccnc(-n2ncc(CCO)c2OCc2ccc(F)cc2)c1 [Example 12] ... 5.04

Here are 3 molecules. What values of pIC50 were reported for them?
1. Cc1cc(Cl)ccc1COc1ccnn1-c1cc(C(=O)O)ccn1 [Example 11]
2. N#CNC(=O)c1ccncc1Nc1nn(CCN2CCC(F)(F)CC2)c2ccc(F)cc12 [Example 14]
3. Nc1c(C(=O)O)ccnc1C(=O)O [Example 7, reference compound]

*A*
1. 6.96
2. 5.64
3. 7.19

Here are 2 molecules. What values of pIC50 were reported for them?
1. CCN(CCN(C)C)C(=O)CNCc1cc(C(=O)O)ccn1 [Example 9]
2. CCN(CC)CCCCNCc1cc(C(=O)O)ccn1 [Example 18]

*A*
1: 7.46; 2: 5.92

Recorded values, source patent US20160303095A1.
